System: A673/TR/shEF
Experiment: cell viability (LOESS-normalised, relative to median of negative controls) (log2 ratio); higher = more viable cells (less compound effect), active = hit call of the paper (over 3 MAD below the median)
Conditions: 0.25 µM; library screen: screen2; EWS-FLI1 expression: low (doxycycline-induced shRNA knockdown); treatment time: 72 h
Among all 3,200 compounds or so, about 300 (9.4%) showed activity. What follows is part of a selection rich in actives, with near analogues and random picks from the rest.
Could you mark each record rule met if its cell viability (log2) falls strictly under 0.09, and rule not met if it equals or exceeds it?

Take a look at these entries with their results.
CC(Cc1ccc(O)cc1)NCC(O)c1cc(O)cc(O)c1 (stereo unspecified): rule met
COc1ccc2c(c1OC)C(=O)O[C@H]2[C@@H]1c2cc3c(cc2CCN1C)OCO3: rule met
N#CC(C#N)=Cc1ccc([N+](=O)[O-])c(O)c1: rule met

Request: Item CCCN1CCCC2Cc3[nH]ncc3CC21 (stereo unspecified) : cell viability (log2) beneath 0.09, strictly?
Response: rule met

Request: Similarly, NC(C(=O)O)c1cc(=O)[nH]o1 (stereo unspecified) ?
Response: rule met

Request: Similarly, COc1ccccc1N1CCNCC1 ?
Response: rule met

Request: Similarly, N#CC(C#N)=Cc1ccc(O)c(O)c1 ?
Response: rule not met

Request: Similarly, CC(N)Cc1c[nH]c2ccc(O)cc12 (stereo unspecified) ?
Response: rule met

Request: Similarly, COc1cc(C=C(C#N)C#N)cc(O)c1O ?
Response: rule not met

Request: Similarly, c1ccc2nc(N3CCNCC3)ccc2c1 ?
Response: rule met

Request: Similarly, Nc1ccc(CCN2CCN(c3cccc(C(F)(F)F)c3)CC2)cc1 ?
Response: rule met

Request: Similarly, N#CC(C#N)=Cc1cc(O)c(O)c(O)c1 ?
Response: rule not met

Request: Similarly, CCC1(O)CC(OC2CC(N(C)C)C(O)C(C)O2)c2c(cc3c(c2O)C(=O)c2c(O)cccc2C3=O)C1C(=O)OC (stereo unspecified) ?
Response: rule met

Request: Similarly, CC(=O)c1c(O)c(C)c(O)c(Cc2c(O)c3c(c(C(=O)/C=C/c4ccccc4)c2O)OC(C)(C)C=C3)c1O ?
Response: rule not met

Request: Similarly, CCN(CC)C(=O)NC1C=C2c3cccc4[nH]cc(c34)CC2N(C)C1 (stereo unspecified) ?
Response: rule not met

Request: Similarly, CC(C)N(CCC(C(N)=O)(c1ccccc1)c1ccccn1)C(C)C (stereo unspecified) ?
Response: rule not met

Request: Similarly, C[C@]12CC[C@@H](O)C[C@@H]1CC[C@@H]1[C@@H]2CC[C@]2(C)C(=O)CC[C@@H]12 ?
Response: rule met

Request: Similarly, NC(CF)(Cc1cnc[nH]1)C(=O)O (stereo unspecified) ?
Response: rule met

Request: Similarly, N#C[C@H](O[C@@H]1O[C@H](CO[C@@H]2O[C@H](CO)[C@@H](O)[C@H](O)[C@H]2O)[C@@H](O)[C@H](O)[C@H]1O)c1ccccc1 ?
Response: rule met

Data credit: the supplement of paper PMC6089552
